Target: ECM
Test: ECM binding assay, ECL reaction, value divided by that of MRA
Quantity: Luminescence ratio vs MRA (fold)

>>> number("bivalent IgG antibody 25H0176/20L0072 (antibody, V domains shown) VH: QVQLVESGGGVVQPGRSLRLSCAASGFTFSSYTMSWVRQAPGQGLEWMGTISSKGGRTYYPDSVKGRFTISRDNSKNTLYLQMNSLRAEDTAVYYCARGDYRYDGFAYWGQGTLVTVSS VL: DIQMTQSPSSLSASVGDRVTITCRASYNIDSYLAWYQQKPGKAPKLLIYASTLLVDGVPSRFSGSRSGTDFTLTISSLQPEDFATYYCQHYYSIPYTFGQGTKLEIK")
5.91
>>> number("bivalent IgG antibody 25H0322/20L0072 (antibody, V domains shown) VH: QVQLVESGGGVVQPGRSLRLSCAASGFTFSSYTMSWVRQAPGQGLEWMGTISSGGGRTYYPFSVKGRFTISRDNSKNTLYLQMNSLRAEDTAVYYCARGDYRYDGFAYWGQGTLVTVSS VL: DIQMTQSPSSLSASVGDRVTITCRASYNIDSYLAWYQQKPGKAPKLLIYASTLLVDGVPSRFSGSRSGTDFTLTISSLQPEDFATYYCQHYYSIPYTFGQGTKLEIK")
5.41
>>> number("bivalent IgG antibody 25H0562/20L0072 (antibody, V domains shown) VH: QVQLVESGGGVVQPGRSLRLSCAASGFTFSSYTMSWVRQAPGQGLEWMGTISSGGGRTYYPDSVKGRFTISRDNSKNTLYLQMNSLRAEDTAVYYCARGDYRYDGFAMWGQGTLVTVSS VL: DIQMTQSPSSLSASVGDRVTITCRASYNIDSYLAWYQQKPGKAPKLLIYASTLLVDGVPSRFSGSRSGTDFTLTISSLQPEDFATYYCQHYYSIPYTFGQGTKLEIK")
2.5
